Reference source: patent US20250263489A1

- Measurement target: IGF-1 receptor on the cells of the PathHunter IGF1R Functional Assay (DiscoverX) (UniProt P08069 31-1367)
- Sequence (P08069 31-1367): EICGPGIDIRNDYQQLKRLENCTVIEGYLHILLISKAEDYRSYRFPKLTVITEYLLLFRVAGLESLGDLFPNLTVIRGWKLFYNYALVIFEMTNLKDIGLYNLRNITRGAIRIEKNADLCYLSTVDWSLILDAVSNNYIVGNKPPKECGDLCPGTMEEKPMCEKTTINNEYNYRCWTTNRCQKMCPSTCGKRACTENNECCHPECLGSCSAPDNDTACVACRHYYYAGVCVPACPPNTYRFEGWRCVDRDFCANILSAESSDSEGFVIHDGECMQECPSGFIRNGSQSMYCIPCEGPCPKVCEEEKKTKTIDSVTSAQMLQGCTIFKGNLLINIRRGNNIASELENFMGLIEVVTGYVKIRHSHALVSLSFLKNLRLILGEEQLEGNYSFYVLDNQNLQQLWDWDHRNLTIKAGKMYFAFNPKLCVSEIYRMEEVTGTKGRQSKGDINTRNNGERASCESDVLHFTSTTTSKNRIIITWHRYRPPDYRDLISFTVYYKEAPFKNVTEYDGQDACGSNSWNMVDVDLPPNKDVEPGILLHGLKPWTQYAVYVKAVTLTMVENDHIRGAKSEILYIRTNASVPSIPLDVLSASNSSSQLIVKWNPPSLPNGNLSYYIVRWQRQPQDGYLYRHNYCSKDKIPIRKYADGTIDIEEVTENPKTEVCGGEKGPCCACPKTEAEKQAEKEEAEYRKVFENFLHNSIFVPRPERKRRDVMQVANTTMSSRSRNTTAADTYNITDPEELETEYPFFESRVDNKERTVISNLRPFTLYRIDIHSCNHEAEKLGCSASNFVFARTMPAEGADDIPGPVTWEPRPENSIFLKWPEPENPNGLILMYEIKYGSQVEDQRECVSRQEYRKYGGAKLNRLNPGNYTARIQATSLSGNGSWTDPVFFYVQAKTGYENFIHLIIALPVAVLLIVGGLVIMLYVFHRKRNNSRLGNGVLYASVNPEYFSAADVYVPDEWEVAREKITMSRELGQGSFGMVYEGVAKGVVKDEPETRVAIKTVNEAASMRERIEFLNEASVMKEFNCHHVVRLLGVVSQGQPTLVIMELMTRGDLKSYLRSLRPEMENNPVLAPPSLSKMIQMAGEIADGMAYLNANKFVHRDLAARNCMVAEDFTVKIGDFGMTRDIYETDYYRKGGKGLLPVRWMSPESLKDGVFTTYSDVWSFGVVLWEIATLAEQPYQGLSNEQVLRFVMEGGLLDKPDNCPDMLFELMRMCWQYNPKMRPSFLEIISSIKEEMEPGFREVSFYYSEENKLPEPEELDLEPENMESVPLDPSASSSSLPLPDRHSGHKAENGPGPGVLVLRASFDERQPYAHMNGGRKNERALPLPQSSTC
- Protocol notes: cell-based or functional assay
Form field: Signal intensity ratio (compared to IGF11-16) at 16.7 nM, PathHunter (one value per entry).

FW1_var9-hH5a (antibody, V domains shown) VH: QVQLVQSGAEVVKPGASVKVSCKASGYTFTSYWMHWVRQAPGQGLEWMGETNPSNSVTNYAQKFQGRVTLTVDTSTSTAYMELSSLRSEDTAVYYCTIGRGRGFAYWGQGTLVTVSS VL: DIQMTQSPSSVSASVGDRVTITCRASQNINFWLSWYQQKPGKAPKLLIYKASNLHTGVPSRFSGSGSGTDFTLTISSLQPEDFATYYCLQGQSYPYTFGGGTKLEIK | 0.56 ratio to IGF11-16

q: So what's the measured Signal intensity ratio (compared to IGF11-16) at 16.7 nM, PathHunter for this one? FW1_var9-hH6a (antibody, V domains shown) VH: QVQLVQSGAEVKKPGASVKLSCKASGYTFTSYWMHWVRQAPGQGLEWMGETNPSNSVTNYAQKFQGRVTLTVDTSTSTAYMELSSLRSEDTAVYYCTIGRGRGFAYWGQGTLVTVSS VL: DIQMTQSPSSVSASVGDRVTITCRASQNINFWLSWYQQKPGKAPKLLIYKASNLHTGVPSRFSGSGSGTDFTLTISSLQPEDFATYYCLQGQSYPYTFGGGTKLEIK
a: 0.55 ratio to IGF11-16

q: So what's the measured Signal intensity ratio (compared to IGF11-16) at 16.7 nM, PathHunter for this one? FW1_var9-hH4a (antibody, V domains shown) VH: QVQLVQSGAELKKPGASVKVSCKASGYTFTSYWMHWVRQAPGQGLEWMGETNPSNSVTNYAQKFQGRVTLTVDTSTSTAYMELSSLRSEDTAVYYCTIGRGRGFAYWGQGTLVTVSS VL: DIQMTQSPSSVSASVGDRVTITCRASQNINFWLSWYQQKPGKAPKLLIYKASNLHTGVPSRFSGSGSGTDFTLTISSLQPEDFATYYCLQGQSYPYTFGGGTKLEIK
a: 0.65 ratio to IGF11-16
